TARGET_OR_SYSTEM: recombinant wild-type (wt) human kallikrein 2 (human, UniProt P20151 25-261)
ASSAY_PROTOCOL: cell-based or functional assay
No end group written: not given here.
Label rule, in plain words: inhibition of 40% and up is criterion met, under 40% is criterion not met.

- BINDER: "ARFKVWWA-NH2 [ARFKVWWA(CONH2) (SEQ ID NO:82)]"
  LABEL_CLASS: "criterion met"
- BINDER: "GPARRPFPG-OH [GPARRPFPG (SEQ ID NO:26)]"
  LABEL_CLASS: "criterion not met"
- BINDER: "GAARRPFPVTAG [GAARRPFPVTAG (SEQ ID NO:16)]"
  LABEL_CLASS: "criterion met"
- BINDER: "SRFKVWWAG-OH [SRFKVWWAG (SEQ ID NO:68)]"
  LABEL_CLASS: "criterion met"
- BINDER: "Ac-ARFKVWWAA [Ac-ARFKVWWAA (SEQ ID NO:81)]"
  LABEL_CLASS: "criterion met"
- BINDER: "GRRPAPG-OH [GRRPAPG (SEQ ID NO:43)]"
  LABEL_CLASS: "criterion not met"
- BINDER: "GPARRPFG-OH [GPARRPFG (SEQ ID NO:27)]"
  LABEL_CLASS: "criterion not met"
- BINDER: "SRFKVWAAAG-OH [SRFKVWAAAG (SEQ ID NO:62)]"
  LABEL_CLASS: "criterion not met"
- BINDER: "GAARRAFPAPSG [GAARRAFPAPSG (SEQ ID NO:10)]"
  LABEL_CLASS: "criterion not met"
- BINDER: "GAARAPFPAPSG [GAARAPFPAPSG (SEQ ID NO:9)]"
  LABEL_CLASS: "criterion not met"
- BINDER: "GFPVTAG-OH [GFFVTAG as printed in Table 6 (SEQ ID NO:36)]"
  LABEL_CLASS: "criterion not met"
- BINDER: "GPARRG-OH [GPARRG (SEQ ID NO:29)]"
  LABEL_CLASS: "criterion not met"
